Each recorded value in this set is attributed to ChEMBL document CHEMBL1255459.

Recorded MIC, one value per entry.
Tested on: Shigella
Assay Notes: Antimicrobial activity against Shigella isolate DH-26336 by broth microdilution method
Format: functional

{"Compound": "CO/N=C(\\C(=O)N[C@@H]1C(=O)N2C(C(=O)O)=C(COC(C)=O)CS[C@H]12)c1csc(N)n1", "MIC / µg/mL": 64}
{"Compound": "CO/N=C(\\C(=O)N[C@@H]1C(=O)N2C(C(=O)[O-])=C(C[N+]3(C)CCCC3)CS[C@H]12)c1csc(N)n1 [CEFEPIME]", "MIC / µg/mL": 4}
{"Compound": "CC(C)(O/N=C(\\C(=O)N[C@@H]1C(=O)N2C(C(=O)[O-])=C(C[n+]3ccccc3)CS[C@H]12)c1csc(N)n1)C(=O)O", "MIC / µg/mL": 4}
{"Compound": "CO/N=C(\\C(=O)N[C@@H]1C(=O)N2C(C(=O)O)=C(CSc3nc(=O)c(O)nn3C)CS[C@H]12)c1csc(N)n1", "MIC / µg/mL": 32}

###

Recorded MIC, one value per entry.
System: Shigella sonnei
Assay Notes: Antimicrobial activity against Shigella sonnei isolate AM22855 by broth microdilution method
Assay type: functional
Property Measured: MIC (µg/mL)

{"Compound": "CO/N=C(\\C(=O)N[C@@H]1C(=O)N2C(C(=O)O)=C(CSc3nc(=O)c(O)nn3C)CS[C@H]12)c1csc(N)n1", "Tested System": "Shigella sonnei", "Property Measured": "MIC", "Meas Value": 64}
{"Compound": "CO/N=C(\\C(=O)N[C@@H]1C(=O)N2C(C(=O)O)=C(COC(C)=O)CS[C@H]12)c1csc(N)n1", "Tested System": "Shigella sonnei", "Property Measured": "MIC", "Meas Value": 64}
{"Compound": "CC(C)(O/N=C(\\C(=O)N[C@@H]1C(=O)N2C(C(=O)[O-])=C(C[n+]3ccccc3)CS[C@H]12)c1csc(N)n1)C(=O)O", "Tested System": "Shigella sonnei", "Property Measured": "MIC", "Meas Value": 8}
{"Compound": "CO/N=C(\\C(=O)N[C@@H]1C(=O)N2C(C(=O)[O-])=C(C[N+]3(C)CCCC3)CS[C@H]12)c1csc(N)n1 [CEFEPIME]", "Tested System": "Shigella sonnei", "Property Measured": "MIC", "Meas Value": 8}

###

Tested on: Shigella
Assay Notes: Antimicrobial activity against Shigella isolate DH-19035 by broth microdilution method
Type: functional
Recorded MIC, one value per entry.

{"Molecule": "CO/N=C(\\C(=O)N[C@@H]1C(=O)N2C(C(=O)O)=C(COC(C)=O)CS[C@H]12)c1csc(N)n1", "MIC [µg/mL]": 64}
{"Molecule": "CO/N=C(\\C(=O)N[C@@H]1C(=O)N2C(C(=O)O)=C(CSc3nc(=O)c(O)nn3C)CS[C@H]12)c1csc(N)n1", "MIC [µg/mL]": 32}
{"Molecule": "CC(C)(O/N=C(\\C(=O)N[C@@H]1C(=O)N2C(C(=O)[O-])=C(C[n+]3ccccc3)CS[C@H]12)c1csc(N)n1)C(=O)O", "MIC [µg/mL]": 2}
{"Molecule": "CO/N=C(\\C(=O)N[C@@H]1C(=O)N2C(C(=O)[O-])=C(C[N+]3(C)CCCC3)CS[C@H]12)c1csc(N)n1 [CEFEPIME]", "MIC [µg/mL]": 4}
